Data origin, for the record: patent US20170355757A1

# assayed_system: Cynomolgus monkey C5 (cynomolgus monkey, UniProt A0A2K5U1T1 19-1676)
# assay_details: cell-based or functional assay
Measured Cyno Serum AP IC50, hemolysis assay, 5% serum, listed per entry.
Record the value in nM, omitting the unit from your answer.

H4H12159P (antibody, human IgG4, V domains shown, H4H: human IgG4 Fc with S108P hinge mutation) VH: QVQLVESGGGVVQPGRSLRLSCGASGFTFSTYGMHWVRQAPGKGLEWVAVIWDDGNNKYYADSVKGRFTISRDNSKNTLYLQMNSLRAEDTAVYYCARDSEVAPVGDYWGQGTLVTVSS VL: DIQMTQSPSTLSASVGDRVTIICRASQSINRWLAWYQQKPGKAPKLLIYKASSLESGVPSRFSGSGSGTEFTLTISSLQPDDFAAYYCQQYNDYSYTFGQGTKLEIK
7.05

## Task Which value of Cyno Serum AP IC50, hemolysis assay, 5% serum has been reported for H4H12175P (antibody, human IgG4, V domains shown, H4H: human IgG4 Fc with S108P hinge mutation) VH: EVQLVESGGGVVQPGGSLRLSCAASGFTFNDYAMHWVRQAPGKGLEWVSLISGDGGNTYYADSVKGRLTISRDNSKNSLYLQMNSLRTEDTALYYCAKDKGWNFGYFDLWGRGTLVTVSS VL: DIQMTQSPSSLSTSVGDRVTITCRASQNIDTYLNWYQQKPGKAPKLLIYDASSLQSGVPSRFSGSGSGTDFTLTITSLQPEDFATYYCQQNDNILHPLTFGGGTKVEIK in the records?
## Result 8.05

## Task Same again, this time with H4H12170P (antibody, human IgG4, V domains shown, H4H: human IgG4 Fc with S108P hinge mutation) VH: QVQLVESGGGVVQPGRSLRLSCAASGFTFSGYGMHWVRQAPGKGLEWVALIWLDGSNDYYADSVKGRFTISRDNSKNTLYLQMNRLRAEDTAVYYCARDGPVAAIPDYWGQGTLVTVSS VL: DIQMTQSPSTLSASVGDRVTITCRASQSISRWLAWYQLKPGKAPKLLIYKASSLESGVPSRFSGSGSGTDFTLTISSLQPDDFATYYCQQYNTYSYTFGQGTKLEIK
## Result 7

## Task And the next one, H4H12161P (antibody, human IgG4, V domains shown, H4H: human IgG4 Fc with S108P hinge mutation) VH: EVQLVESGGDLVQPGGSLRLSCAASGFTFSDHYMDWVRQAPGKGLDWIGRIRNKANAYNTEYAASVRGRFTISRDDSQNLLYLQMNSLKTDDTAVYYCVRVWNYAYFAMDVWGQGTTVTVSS VL: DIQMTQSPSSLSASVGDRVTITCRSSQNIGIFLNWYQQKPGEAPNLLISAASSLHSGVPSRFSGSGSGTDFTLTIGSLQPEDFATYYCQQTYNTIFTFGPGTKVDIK ?
## Result 7.8

## Task Item: H4H12171P (antibody, human IgG4, V domains shown, H4H: human IgG4 Fc with S108P hinge mutation) VH: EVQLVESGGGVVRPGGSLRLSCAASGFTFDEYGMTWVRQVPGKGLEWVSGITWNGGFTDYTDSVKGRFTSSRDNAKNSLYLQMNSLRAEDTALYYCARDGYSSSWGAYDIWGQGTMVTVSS VL: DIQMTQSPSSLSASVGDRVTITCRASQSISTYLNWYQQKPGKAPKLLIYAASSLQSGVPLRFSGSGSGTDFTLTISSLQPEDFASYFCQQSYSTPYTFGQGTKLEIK
## Result 7.2
